- SYSTEM: T1, gp120IIIB (subgroup B) (HIV-1, UniProt P04578 33-511)
- T1 construct: it is not tied to this reagent; also called IIIB gp120 (B)
- ASSAY TEXT: SPR
Answer each item with its documented pKd.
# pKd is unitless: minus log10 of the molar concentration; print number only

[ask] Given the binder L82B4F (VHH, Family member of L81H9; tags not written into the chain) VHH: EVQLVESGGGLVQAGGSLRLSCAASGFTSDDYAIGWFRRAPGKEREGVSYISIEDGSTYSADSVKGRFTISSDYAKNTVYLQMNGLKPEDTAVYYCAAAILGDSVRWLQEYDYDYWGQGTQVTVSS , what is its reported pKd?
[reply] 10.50

[ask] For L91C2 (VHH, Purified by IMAC; tags not written into the chain) VHH: EVQLVESGGGLVQPGGSLRLSCAASGFTLDGYAIGWFRQAPGKEREAISCITTAGTIYYADSVKGRVTISRDNAKNTVYLQMNSLKPEDTAVYLCAADGFDTPCVAGTDWGYDYEGQGTQVTVSS , what is its reported pKd?
[reply] 8.70

[ask] So what does the record say about pKd for L91H9 (VHH, Purified by IMAC; tags not written into the chain) VHH: EVQLVESGGGLVQAGGSLRLSCAVSGATFDDYAIGWFRQAPGKEREGVSYIGCNDGSTYYAGSVKGRFTISCDYAKNTVYLQMNSLKPEDTAVYYCAAAAQWATIRWIHEYDYDTWGQGTQVTVSS ?
[reply] 8.39

[ask] Given L92E7 (VHH, Purified by IMAC; tags not written into the chain) VHH: EVQLVESGGGLVQPGGSLRLSCAASGNIVSIDAAGWFRQAPGKQREPVATILTGGATNYADSVKGRFTISRDNAKNTVYLQMSSLKPEDTAVYYCYAPMIYYGGRYSDYWGQGTQVTVSS , state its recorded pKd.
[reply] 8.35
